Source listed as ChEMBL document CHEMBL4261607.

Test: Cytotoxicity in yeast assessed as reduction in cell proliferation
Assay type: organism-based
Details: saccharomyces cerevisiae, yeast cells
recorded.endpoint: CC50

compound	CC50
N#CCCN(Cc1cccs1)S(=O)(=O)c1ccc([N+](=O)[O-])cc1	> 191 µM
N#CCCN(Cc1cccs1)S(=O)(=O)c1ccc(F)cc1	> 206 µM
CCOC(=O)CCN(Cc1cccs1)S(=O)(=O)c1ccc(Br)cc1	> 155 µM
CCCN(CCC#N)S(=O)(=O)c1ccc(Br)cc1	> 202 µM
CCCN(Cc1cccs1)S(=O)(=O)c1ccc(Br)cc1	> 179 µM

Summary for this compound, `N#CCCN(Cc1cccs1)S(=O)(=O)c1ccc(C#N)cc1` : CC50 is > 202 µM

Summary for this compound, `N#CCCN(Cc1ccc[nH]1)S(=O)(=O)c1ccc(Br)cc1` : CC50 is > 182 µM

Summary for this compound, `Cc1cccc(S(=O)(=O)N(CCC#N)Cc2ccco2)c1` : CC50 is > 220 µM

Summary for this compound, NC12CC3CC(CC(C3)C1)C2 [AMANTADINE] : CC50 is > 443 µM

Summary for this compound, `N#CCCN(Cc1cccs1)S(=O)(=O)c1ccccc1F` : CC50 is > 206 µM

Summary for this compound, `O=C(O)CCN(Cc1cccs1)S(=O)(=O)c1ccc(Br)cc1` : CC50 is > 166 µM

Summary for this compound, `N#CCCN(Cc1cccs1)S(=O)(=O)c1ccc(Cl)cc1` : CC50 is > 197 µM

---

Experiment: Cytotoxicity in yeast assessed as reduction in cell proliferation
Format: organism-based
Conditions: saccharomyces cerevisiae, yeast cells
The reader will find reported CC50 values listed item by item below.

Study these solved cases before continuing.
smiles.str	CC50
COc1ccc(S(=O)(=O)N(CCC#N)Cc2ccco2)cc1	> 209 µM
N#CCCN(Cc1ccco1)S(=O)(=O)c1ccc(F)cc1	216 to 217 µM
N#CCCN(Cc1cccs1)S(=O)(=O)c1ccc(C(F)(F)F)cc1	> 179 µM

Summary for this compound, `CC(=O)c1ccc(S(=O)(=O)N(CCC#N)Cc2cccs2)cc1` : CC50 is > 192 µM

Summary for this compound, `N#CCCN(Cc1ccco1)S(=O)(=O)c1ccc(Br)cc1` : CC50 is > 182 µM

Summary for this compound, `N#CCCN(Cc1ccco1)S(=O)(=O)c1ccc(Cl)cc1` : CC50 is > 206 µM

Summary for this compound, `COc1ccc(S(=O)(=O)N(CCC#N)Cc2cccs2)cc1` : CC50 is > 199 µM

Summary for this compound, `CCOC(=O)C1=C[C@@H](OC(CC)CC)[C@H](NC(C)=O)[C@@H](N)C1` : CC50 is > 214 µM

Summary for this compound, `Cc1ccc(S(=O)(=O)N(CCC#N)Cc2cccs2)cc1` : CC50 is > 209 µM

Summary for this compound, `N#CCCN(Cc1ccco1)S(=O)(=O)c1ccc(C(F)(F)F)cc1` : CC50 is > 187 µM

Summary for this compound, `O=S(=O)(c1ccc(Br)cc1)N(Cc1cccs1)Cc1cccs1` : CC50 is > 156 µM

Summary for this compound, `N#CCCN(Cc1ccccc1)S(=O)(=O)c1ccc(F)cc1` : CC50 is > 210 µM

Summary for this compound, `N#CCCN(Cc1cccs1)S(=O)(=O)c1cccc(F)c1` : CC50 is > 206 µM

Summary for this compound, `N#CCCN(Cc1cccs1)S(=O)(=O)c1ccc(N)cc1` : CC50 is > 179 µM

Summary for this compound, `Cc1ccc(S(=O)(=O)N(CCC#N)Cc2ccco2)cc1` : CC50 is > 220 µM

Summary for this compound, `N#CCCN(Cc1cccs1)S(=O)(=O)c1ccc(Br)cc1` : CC50 is > 174 µM

Summary for this compound, `N#CCCN(Cc1ccco1)S(=O)(=O)c1ccc(C#N)cc1` : CC50 is > 212 µM
